# Tested on: Jurkat cells
# test.protocol: MTT cell viability assay, Jurkat cells
# Type: cell-based
# measurement.setup: Homo sapiens, 48 h
measured.metric: IC50

Answer for every listed entry: what is its IC50? The entries follow.
1. C#CC(=O)Nc1ccc(Nc2ncc(C)c(Nc3sccc3C(=O)NC)n2)cc1
2. C=CC(=O)Nc1ccc(Nc2ncc(C)c(Nc3sccc3C(=O)NC)n2)cc1
3. CNC(=O)c1ccccc1Nc1nc(Nc2ccc(Nc3c(NC45CC6CC(CC(C6)C4)C5)c(=O)c3=O)cc2)ncc1C(F)(F)F
4. CNC(=O)c1ccsc1Nc1nc(Nc2ccc(Nc3c(NC45CC6CC(CC(C6)C4)C5)c(=O)c3=O)cc2)ncc1C(F)(F)F

Solution:
1: 0.665 µM; 2: 10.4 µM; 3: 1.63 µM; 4: 5.2 µM
